- Test system: ATP;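 further: ATP exposure 15 min at 22 °C before imaging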
- Test protocol: switch fluorescence ratio, 500 uM ATP over buffer (Cy3 cluster intensity, sum of 5 cycles each) (fold (ratio)); higher = stronger signal-on switching upon ATP binding; sequences stand for … in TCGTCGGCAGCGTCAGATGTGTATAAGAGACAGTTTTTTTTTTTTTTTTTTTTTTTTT…TC
- Condition info: aptamer strand: ATP DNA aptamer (quencher-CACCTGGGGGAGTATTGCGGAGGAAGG + anchor), 100 nM annealed; ATP concentration: 500 uM
Reported property: switch fluorescence ratio
Write the number on its own, no unit after it.

Examples with their reported switch fluorescence ratio follow.
Residue string | switch fluorescence ratio
AGGTCCGGAA | 1.14
TTTGGATCAG | 1.01
TTACAGTTGT | 1.01
GGGCGGCGGC | 0.988
AAGTTTGTTA | 0.995
CCCTGTTCGC | 1.03

INPUT: Tell me reported switch fluorescence ratio for TAATGTTGGT , tested with ATP.
OUTPUT: 1.02

INPUT: Tell me reported switch fluorescence ratio for TTTGTGGGGT , tested with ATP.
OUTPUT: 1.01

INPUT: Tell me reported switch fluorescence ratio for TATATCAGTT , tested with ATP.
OUTPUT: 1.01

INPUT: Tell me reported switch fluorescence ratio for GGGTGGGCCA , tested with ATP.
OUTPUT: 0.969

INPUT: Tell me reported switch fluorescence ratio for TGTGGGGCC , tested with ATP.
OUTPUT: 1.04

INPUT: Tell me reported switch fluorescence ratio for TGAGCATGGG , tested with ATP.
OUTPUT: 1

INPUT: Tell me reported switch fluorescence ratio for CAGAGGGTGC , tested with ATP.
OUTPUT: 1.03

INPUT: Tell me reported switch fluorescence ratio for ATTCTGTTTG , tested with ATP.
OUTPUT: 0.987

INPUT: Tell me reported switch fluorescence ratio for GTCTATATTT , tested with ATP.
OUTPUT: 1

INPUT: Tell me reported switch fluorescence ratio for CCTTTTGGGG , tested with ATP.
OUTPUT: 1.03

INPUT: Tell me reported switch fluorescence ratio for AAGGCATGCA , tested with ATP.
OUTPUT: 1.01

INPUT: Tell me reported switch fluorescence ratio for TTGTAATTGT , tested with ATP.
OUTPUT: 0.995

INPUT: Tell me reported switch fluorescence ratio for AGCGAAGATG , tested with ATP.
OUTPUT: 1

INPUT: Tell me reported switch fluorescence ratio for TTTCTTTTGG , tested with ATP.
OUTPUT: 1.1

INPUT: Tell me reported switch fluorescence ratio for AACGAGAGGG , tested with ATP.
OUTPUT: 1.04

INPUT: Tell me reported switch fluorescence ratio for ATTAGGGGGG , tested with ATP.
OUTPUT: 0.998

INPUT: Tell me reported switch fluorescence ratio for AAATGGTCT , tested with ATP.
OUTPUT: 1.02

INPUT: Tell me reported switch fluorescence ratio for AAAGGGGGTG , tested with ATP.
OUTPUT: 1.02

INPUT: Tell me reported switch fluorescence ratio for AAACGGGGAT , tested with ATP.
OUTPUT: 0.992

INPUT: Tell me reported switch fluorescence ratio for GGTGAATGGC , tested with ATP.
OUTPUT: 1.03

INPUT: Tell me reported switch fluorescence ratio for TTAGTATCTC , tested with ATP.
OUTPUT: 1.03

INPUT: Tell me reported switch fluorescence ratio for CGATTACTCC , tested with ATP.
OUTPUT: 2.82

INPUT: Tell me reported switch fluorescence ratio for ACTACATATG , tested with ATP.
OUTPUT: 1.03
